# Test system: Escherichia coli TOP10
# assayNotes: shrunken log2 fold change of peptide-encoding DNA abundance (4.5 h post-induction vs induction); higher = less antimicrobial activity (less host growth inhibition)
# experimentalConditions: time post-induction: 4.5 h; library: site-saturation at positions 5, 18, 19, 20
resultType: shrunken log2 fold change
// print number alone

Can you look up the measured shrunken log2 fold change of `RRIRMRPPRLPRPRPRPSNHPRP` for me? 0.00558

Can you look up the measured shrunken log2 fold change of `RRIRKRPPRLPRPRPRPEEQPRP` for me? 3.17

Can you look up the measured shrunken log2 fold change of `RRIRMRPPRLPRPRPRPTMDPRP` for me? 0.306

Can you look up the measured shrunken log2 fold change of `RRIRKRPPRLPRPRPRPLNMPRP` for me? 0.0134

Can you look up the measured shrunken log2 fold change of `RRIRRRPPRLPRPRPRPDVEPRP` for me? 0.0547

Can you look up the measured shrunken log2 fold change of `RRIRDRPPRLPRPRPRPIWAPRP` for me? -0.0982

Can you look up the measured shrunken log2 fold change of `RRIRFRPPRLPRPRPRPPLPPRP` for me? 0.661

Can you look up the measured shrunken log2 fold change of `RRIRMRPPRLPRPRPRPRSHPRP` for me? 0.407

Can you look up the measured shrunken log2 fold change of `RRIRYRPPRLPRPRPRPARRPRP` for me? 0.234

Can you look up the measured shrunken log2 fold change of `RRIRTRPPRLPRPRPRPHKKPRP` for me? 0.0809

Can you look up the measured shrunken log2 fold change of `RRIRHRPPRLPRPRPRPFVVPRP` for me? -0.16

Can you look up the measured shrunken log2 fold change of `RRIRSRPPRLPRPRPRPHMQPRP` for me? -0.264

Can you look up the measured shrunken log2 fold change of `RRIRIRPPRLPRPRPRPAKSPRP` for me? -0.0109

Can you look up the measured shrunken log2 fold change of `RRIRARPPRLPRPRPRPSFYPRP` for me? -0.155

Can you look up the measured shrunken log2 fold change of `RRIRARPPRLPRPRPRPLRWPRP` for me? 0.809

Can you look up the measured shrunken log2 fold change of `RRIRDRPPRLPRPRPRPGEQPRP` for me? 0.259

Can you look up the measured shrunken log2 fold change of `RRIRMRPPRLPRPRPRPSLNPRP` for me? -0.0544

Can you look up the measured shrunken log2 fold change of `RRIRLRPPRLPRPRPRPDMYPRP` for me? -0.0404

Can you look up the measured shrunken log2 fold change of `RRIRPRPPRLPRPRPRPWWAPRP` for me? 0.00677

Can you look up the measured shrunken log2 fold change of `RRIRARPPRLPRPRPRPSRLPRP` for me? 0.487

Can you look up the measured shrunken log2 fold change of `RRIRVRPPRLPRPRPRPFYEPRP` for me? -0.453

Can you look up the measured shrunken log2 fold change of `RRIRTRPPRLPRPRPRPEVMPRP` for me? 0.114

Can you look up the measured shrunken log2 fold change of `RRIRCRPPRLPRPRPRPRSNPRP` for me? -0.349

Can you look up the measured shrunken log2 fold change of `RRIRDRPPRLPRPRPRPARDPRP` for me? 0.724

Can you look up the measured shrunken log2 fold change of `RRIRDRPPRLPRPRPRPNWYPRP` for me? -0.476

Can you look up the measured shrunken log2 fold change of `RRIRTRPPRLPRPRPRPPFWPRP` for me? 0.379

Can you look up the measured shrunken log2 fold change of `RRIRIRPPRLPRPRPRPFMNPRP` for me? -0.16

Can you look up the measured shrunken log2 fold change of `RRIRPRPPRLPRPRPRPFCNPRP` for me? -0.609

Can you look up the measured shrunken log2 fold change of `RRIRKRPPRLPRPRPRPNWIPRP` for me? -0.2

Can you look up the measured shrunken log2 fold change of `RRIRTRPPRLPRPRPRPLYEPRP` for me? -0.774

Can you look up the measured shrunken log2 fold change of `RRIRWRPPRLPRPRPRPRLPPRP` for me? 0.471

Can you look up the measured shrunken log2 fold change of `RRIRRRPPRLPRPRPRPDPGPRP` for me? -0.0599

###

# System: Escherichia coli TOP10;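 further: peptides expressed intracellularly from a pBAD plasmid library in pooled LB shake-flask culture, induced with 0.3% L-arabinose, DNA abundance read by NGS, three biological replicates, DESeq2 with apeglm shrinkage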
# assayNotes: shrunken log2 fold change of peptide-encoding DNA abundance (4.5 h post-induction vs induction); higher = less antimicrobial activity (less host growth inhibition)
# experimentalConditions: time post-induction: 4.5 h; library: site-saturation at positions 5, 18, 19, 20
I'd appreciate it if you could supply shrunken log2 fold change values for the items below.
// print number alone

Can you look up the measured shrunken log2 fold change of `RRIRNRPPRLPRPRPRPCMSPRP` for me? -0.108

Can you look up the measured shrunken log2 fold change of `RRIRRRPPRLPRPRPRPAVEPRP` for me? -0.0125

Can you look up the measured shrunken log2 fold change of `RRIRLRPPRLPRPRPRPVNTPRP` for me? -0.186

Can you look up the measured shrunken log2 fold change of `RRIRTRPPRLPRPRPRPHYFPRP` for me? -0.914

Can you look up the measured shrunken log2 fold change of `RRIRCRPPRLPRPRPRPDPHPRP` for me? -0.015

Can you look up the measured shrunken log2 fold change of `RRIRERPPRLPRPRPRPTTGPRP` for me? -0.0235

Can you look up the measured shrunken log2 fold change of `RRIRARPPRLPRPRPRPFLQPRP` for me? 0.123

Can you look up the measured shrunken log2 fold change of `RRIRDRPPRLPRPRPRPGEVPRP` for me? 0.247

Can you look up the measured shrunken log2 fold change of `RRIRARPPRLPRPRPRPLNSPRP` for me? 0.0404

Can you look up the measured shrunken log2 fold change of `RRIRMRPPRLPRPRPRPVIWPRP` for me? 0.46

Can you look up the measured shrunken log2 fold change of `RRIRGRPPRLPRPRPRPEMYPRP` for me? 0.837

Can you look up the measured shrunken log2 fold change of `RRIRIRPPRLPRPRPRPDHPPRP` for me? -0.266

Can you look up the measured shrunken log2 fold change of `RRIRPRPPRLPRPRPRPHATPRP` for me? 0.323

Can you look up the measured shrunken log2 fold change of `RRIRMRPPRLPRPRPRPYIMPRP` for me? -0.12

Can you look up the measured shrunken log2 fold change of `RRIRPRPPRLPRPRPRPHSTPRP` for me? -0.583

Can you look up the measured shrunken log2 fold change of `RRIRGRPPRLPRPRPRPQTGPRP` for me? 0.162

Can you look up the measured shrunken log2 fold change of `RRIRPRPPRLPRPRPRPSEEPRP` for me? 0.591

Can you look up the measured shrunken log2 fold change of `RRIRDRPPRLPRPRPRPCGVPRP` for me? 0.0765

Can you look up the measured shrunken log2 fold change of `RRIRTRPPRLPRPRPRPKIGPRP` for me? -0.0689

Can you look up the measured shrunken log2 fold change of `RRIRLRPPRLPRPRPRPFNSPRP` for me? -0.431

Can you look up the measured shrunken log2 fold change of `RRIRYRPPRLPRPRPRPSYLPRP` for me? -1.08

Can you look up the measured shrunken log2 fold change of `RRIRARPPRLPRPRPRPLVKPRP` for me? 0.0577

Can you look up the measured shrunken log2 fold change of `RRIRYRPPRLPRPRPRPVMPPRP` for me? 0.047

Can you look up the measured shrunken log2 fold change of `RRIRDRPPRLPRPRPRPQCPPRP` for me? -0.00693

Can you look up the measured shrunken log2 fold change of `RRIRKRPPRLPRPRPRPLCKPRP` for me? 0.0465

Can you look up the measured shrunken log2 fold change of `RRIRMRPPRLPRPRPRPEYPPRP` for me? 0.0399

Can you look up the measured shrunken log2 fold change of `RRIRQRPPRLPRPRPRPTSTPRP` for me? -0.0784

Can you look up the measured shrunken log2 fold change of `RRIRGRPPRLPRPRPRPHWHPRP` for me? 0.0418

Can you look up the measured shrunken log2 fold change of `RRIRERPPRLPRPRPRPNYDPRP` for me? -0.873

Can you look up the measured shrunken log2 fold change of `RRIRCRPPRLPRPRPRPWMMPRP` for me? -0.0394

Can you look up the measured shrunken log2 fold change of `RRIRLRPPRLPRPRPRPGSTPRP` for me? -0.381

Can you look up the measured shrunken log2 fold change of `RRIRWRPPRLPRPRPRPKFYPRP` for me? -0.24
